Test system: Staphylococcus aureus
Test: Antibiofilm activity against Staphylococcus aureus MLS16 MTCC 2940 after 24 hrs by crystal violet staining based assay
Assay type: functional
Conditions: MLS16 MTCC 2940, 24 h
Listing: IC50 of selected compounds
Form entry: value (µg/mL) — number only.

Completed entries (count: 3):
# compound, target_system, IC50, µg/mL
records = [
    ("Cc1ccc(N2C=Nc3c(c(=O)n(C)c(=O)n3C)C2c2cn(-c3ccccc3)nc2-c2ccc([N+](=O)[O-])cc2)cc1 (centres undefined)", "Staphylococcus aureus", 9.5),
    ("Cc1ccc(-c2nn(-c3ccccc3)cc2C2c3c(n(C)c(=O)n(C)c3=O)N=CN2c2ccc(C)cc2)cc1 (centres undefined)", "Staphylococcus aureus", 8.2),
    ("Cc1ccc(-c2nn(-c3ccccc3)cc2C2c3c(n(C)c(=O)n(C)c3=O)N=CN2c2ccc(Cl)cc2)cc1 (centres undefined)", "Staphylococcus aureus", 4.4),
]

Problem: Report IC50 on Staphylococcus aureus for this entry: O=C(O)c1cn(C2CC2)c2cc(N3CCNCC3)c(F)cc2c1=O
Solution: 0.4

* * *

Overview of reported MIC across a group of molecules:
System: Escherichia coli
Assay: Antibacterial activity against Escherichia coli MTCC 739 after 24 hrs by well diffusion method
Type: functional
Details: MTCC 739, 24 h

These solved cases illustrate the format of a correct answer.
# molecule, MIC
measured = [
    ("COc1ccc(N2C=Nc3c(c(=O)n(C)c(=O)n3C)C2c2cn(-c3ccccc3)nc2-c2ccc([N+](=O)[O-])cc2)cc1 (stereo unspecified)", "> 125 µg/mL"),
    ("Cn1c2c(c(=O)n(C)c1=O)C(c1cn(-c3ccccc3)nc1-c1ccc(Cl)cc1)N(c1ccccc1)C=N2 (stereo unspecified)", "> 125 µg/mL"),
    ("Cn1c2c(c(=O)n(C)c1=O)C(c1cn(-c3ccccc3)nc1-c1ccc(Cl)cc1)N(c1cccc([N+](=O)[O-])c1)C=N2 (stereo unspecified)", "> 125 µg/mL"),
]

Problem: Specify MIC for Cc1ccc(N2C=Nc3c(c(=O)n(C)c(=O)n3C)C2c2cn(-c3ccccc3)nc2-c2ccccc2)cc1 (stereo unspecified) and stop.
Solution: > 125 µg/mL

Problem: Given COc1ccc(N2C=Nc3c(c(=O)n(C)c(=O)n3C)C2c2cn(-c3ccccc3)nc2-c2ccccc2)cc1 (stereo unspecified) , respond with its MIC.
Solution: > 125 µg/mL

Problem: Note MIC for the molecule shown: Cn1c2c(c(=O)n(C)c1=O)C(c1cn(-c3ccccc3)nc1-c1ccccc1)N(c1ccc(Cl)cc1)C=N2 (stereo unspecified)
Solution: > 125 µg/mL

* * *

Test system: Escherichia coli
Assay: Antibacterial activity against Escherichia coli MTCC 739 after 24 hrs by well diffusion method
Type: functional
Settings: MTCC 739, 24 h
outcome_measure: MIC

# compound, outcome_measure, data_value
measured = [
    ("Cc1ccc(-c2nn(-c3ccccc3)cc2C2c3c(n(C)c(=O)n(C)c3=O)N=CN2c2ccc(C)cc2)cc1 (centres undefined)", "MIC", "> 125 µg/mL"),
    ("Cn1c2c(c(=O)n(C)c1=O)C(c1cn(-c3ccccc3)nc1-c1ccccc1)N(c1ccccc1)C=N2 (centres undefined)", "MIC", "> 125 µg/mL"),
    ("O=C(O)c1cn(C2CC2)c2cc(N3CCNCC3)c(F)cc2c1=O", "MIC", "0.9 µg/mL"),
]

API: the following record is the query input.
Problem: Quote MIC reported for Cc1ccc(-c2nn(-c3ccccc3)cc2C2c3c(n(C)c(=O)n(C)c3=O)N=CN2c2ccccc2)cc1 (centres undefined) please.
Solution: > 125 µg/mL

* * *

Entries annotated with measured MIC
System: Staphylococcus aureus
Assay: Antibacterial activity against Staphylococcus aureus MLS16 MTCC 2940 after 24 hrs by well diffusion method
Format: functional
Details: MLS16 MTCC 2940, 24 h
Report only the number, with the unit µg/mL understood.

Example cases with answers are listed next.
# compound, outcome_measure, data_value
measured = [
    ("Cc1ccc(-c2nn(-c3ccccc3)cc2C2c3c(n(C)c(=O)n(C)c3=O)N=CN2c2ccc(Cl)cc2)cc1 (configuration not stated)", "MIC", 7.8),
    ("COc1ccc(N2C=Nc3c(c(=O)n(C)c(=O)n3C)C2c2cn(-c3ccccc3)nc2-c2ccc(Cl)cc2)cc1 (configuration not stated)", "MIC", 15.6),
]

Problem: Please indicate MIC recorded for Cn1c2c(c(=O)n(C)c1=O)C(c1cn(-c3ccccc3)nc1-c1cccs1)N(c1ccc(Cl)cc1)C=N2 (configuration not stated)
Solution: 15.6

* * *

The entries below come with measured MBC values attached.
Tested on: Micrococcus luteus
Assay: Bactericidal activity against Micrococcus luteus MTCC 2470 after 24 hrs by serial dilution method
Assay type: functional
Conditions: MTCC 2470, 24 h
Write the numeric value and append its unit.

# compound, data_value
rows = [
    ("Cc1ccc(N2C=Nc3c(c(=O)n(C)c(=O)n3C)C2c2cn(-c3ccccc3)nc2-c2cccs2)cc1 (stereo not given)", "31.2 µg/mL"),
    ("COc1ccc(N2C=Nc3c(c(=O)n(C)c(=O)n3C)C2c2cn(-c3ccccc3)nc2-c2cccs2)cc1 (stereo not given)", "15.6 µg/mL"),
    ("Cn1c2c(c(=O)n(C)c1=O)C(c1cn(-c3ccccc3)nc1-c1ccccc1)N(c1ccc(Cl)cc1)C=N2 (stereo not given)", "31.2 µg/mL"),
]

Problem: Read the entry Cc1ccc(-c2nn(-c3ccccc3)cc2C2c3c(n(C)c(=O)n(C)c3=O)N=CN2c2ccc(C)cc2)cc1 (stereo not given) and write its reported MBC.
Solution: 15.6 µg/mL

Problem: Report MBC for Cc1ccc(-c2nn(-c3ccccc3)cc2C2c3c(n(C)c(=O)n(C)c3=O)N=CN2c2ccc(Cl)cc2)cc1 (stereo not given)
Solution: 15.6 µg/mL

* * *

Test system: Staphylococcus aureus
Test: Antibacterial activity against Staphylococcus aureus MTCC 96 after 24 hrs by well diffusion method
Assay type: functional
Details: MTCC 96, 24 h
outcome_measure: MIC (µg/mL)
Give the number; µg/mL is assumed, so skip it.

# compound, MIC [µg/mL]
records = [
    ("Cn1c2c(c(=O)n(C)c1=O)C(c1cn(-c3ccccc3)nc1-c1cccs1)N(c1ccccc1)C=N2 (centres undefined)", 31.2),
]

Pending compound:
Problem: Item Cc1ccc(N2C=Nc3c(c(=O)n(C)c(=O)n3C)C2c2cn(-c3ccccc3)nc2-c2ccc([N+](=O)[O-])cc2)cc1 (centres undefined) : provide MIC
Solution: 15.6

* * *

Tested on: Staphylococcus aureus
Assay: Antibacterial activity against Staphylococcus aureus MLS16 MTCC 2940 after 24 hrs by well diffusion method
Type: functional
Settings: MLS16 MTCC 2940, 24 h
Listing of entries alongside the reported MIC.

Below, 7 compounds whose answers are already recorded.
# compound, outcome_measure, data_value
measured = [
    ("Cc1ccc(-c2nn(-c3ccccc3)cc2C2c3c(n(C)c(=O)n(C)c3=O)N=CN2c2cccc([N+](=O)[O-])c2)cc1 (stereo not drawn)", "MIC", "> 125 µg/mL"),
    ("Cn1c2c(c(=O)n(C)c1=O)C(c1cn(-c3ccccc3)nc1-c1cccs1)N(c1ccccc1)C=N2 (stereo not drawn)", "MIC", "15.6 µg/mL"),
    ("COc1ccc(N2C=Nc3c(c(=O)n(C)c(=O)n3C)C2c2cn(-c3ccccc3)nc2-c2ccc([N+](=O)[O-])cc2)cc1 (stereo not drawn)", "MIC", "31.2 µg/mL"),
    ("Cn1c2c(c(=O)n(C)c1=O)C(c1cn(-c3ccccc3)nc1-c1ccc(Cl)cc1)N(c1ccccc1)C=N2 (stereo not drawn)", "MIC", "> 125 µg/mL"),
    ("Cn1c2c(c(=O)n(C)c1=O)C(c1cn(-c3ccccc3)nc1-c1ccc([N+](=O)[O-])cc1)N(c1ccc(Cl)cc1)C=N2 (stereo not drawn)", "MIC", "> 125 µg/mL"),
    ("Cc1ccc(-c2nn(-c3ccccc3)cc2C2c3c(n(C)c(=O)n(C)c3=O)N=CN2c2ccccc2)cc1 (stereo not drawn)", "MIC", "> 125 µg/mL"),
    ("COc1ccc(N2C=Nc3c(c(=O)n(C)c(=O)n3C)C2c2cn(-c3ccccc3)nc2-c2ccccc2)cc1 (stereo not drawn)", "MIC", "> 125 µg/mL"),
]

Now take the following compound into account.
Problem: Complete the entry with MIC for Cn1c2c(c(=O)n(C)c1=O)C(c1cn(-c3ccccc3)nc1-c1ccc(Cl)cc1)N(c1ccc(Cl)cc1)C=N2 (stereo not drawn)
Solution: > 125 µg/mL

* * *

Test system: Micrococcus luteus
Test: Bactericidal activity against Micrococcus luteus MTCC 2470 after 24 hrs by serial dilution method
Assay type: functional
Conditions: MTCC 2470, 24 h
outcome_measure: MBC (µg/mL)
Hi! Could you send only the number? It should be in µg/mL, unit omitted.

Please review the entries below; each comes with its answer.
# compound, unit_name, data_value
measured = [
    ("Cn1c2c(c(=O)n(C)c1=O)C(c1cn(-c3ccccc3)nc1-c1ccc([N+](=O)[O-])cc1)N(c1cccc([N+](=O)[O-])c1)C=N2 (stereo not drawn)", "µg/mL", 62.5),
    ("COc1ccc(N2C=Nc3c(c(=O)n(C)c(=O)n3C)C2c2cn(-c3ccccc3)nc2-c2ccc(Cl)cc2)cc1 (stereo not drawn)", "µg/mL", 15.6),
    ("Cn1c2c(c(=O)n(C)c1=O)C(c1cn(-c3ccccc3)nc1-c1cccs1)N(c1ccc(Cl)cc1)C=N2 (stereo not drawn)", "µg/mL", 31.2),
    ("Cc1ccc(N2C=Nc3c(c(=O)n(C)c(=O)n3C)C2c2cn(-c3ccccc3)nc2-c2ccc(Cl)cc2)cc1 (stereo not drawn)", "µg/mL", 31.2),
    ("Cc1ccc(N2C=Nc3c(c(=O)n(C)c(=O)n3C)C2c2cn(-c3ccccc3)nc2-c2ccc([N+](=O)[O-])cc2)cc1 (stereo not drawn)", "µg/mL", 15.6),
    ("O=C(O)c1cn(C2CC2)c2cc(N3CCNCC3)c(F)cc2c1=O [CIPROFLOXACIN]", "µg/mL", 1.9),
    ("COc1ccc(N2C=Nc3c(c(=O)n(C)c(=O)n3C)C2c2cn(-c3ccccc3)nc2-c2ccc([N+](=O)[O-])cc2)cc1 (stereo not drawn)", "µg/mL", 15.6),
]

Now examine the next entry.
Problem: Complete the entry with MBC for COc1ccc(N2C=Nc3c(c(=O)n(C)c(=O)n3C)C2c2cn(-c3ccccc3)nc2-c2ccc(C)cc2)cc1 (stereo not drawn)
Solution: 15.6
